Target system: T1, human CGRP receptor extracellular domain (ECD) (human, UniProt Q16602 23-138; O60894 27-117)
T1 construct: also called CGRP receptor ECD; human CGRP receptor ECD
T1 sequence (Q16602 23-138 limits assumed, chain 1 of 2): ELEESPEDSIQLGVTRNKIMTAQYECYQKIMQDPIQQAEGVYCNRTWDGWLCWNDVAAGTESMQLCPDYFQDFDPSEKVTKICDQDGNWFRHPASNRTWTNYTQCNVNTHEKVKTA
T1 sequence (O60894 27-117 limits assumed, chain 2 of 2): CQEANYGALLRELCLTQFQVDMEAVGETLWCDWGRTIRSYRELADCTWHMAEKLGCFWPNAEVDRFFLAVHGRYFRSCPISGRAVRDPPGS
Measurement notes: yeast-displayed Fab, FACS, 10 nM human CGRP receptor ECD
Here, each record is paired with measured Normalized Binding Signal/Display Signal (B/D) data.
Observed property: Normalized Binding Signal/Display Signal (B/D) (ratio)

# Binder, Result
records = [
    ("anti-CGRP receptor variant 14, yeast-displayed Fab (Fab, V domains shown, also called Variant Ab ID 14) VH: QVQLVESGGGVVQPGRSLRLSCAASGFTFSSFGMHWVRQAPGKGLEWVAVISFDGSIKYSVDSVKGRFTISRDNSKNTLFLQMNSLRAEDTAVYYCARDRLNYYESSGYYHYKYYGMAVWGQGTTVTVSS VL: QSVLTQPPSVSAAPGQKVTISCSGSSSNIGNNYVSWYQQLPGTAPKLLIYDNNKRPSGIPDRFSGSKSGTSATLGITGLQTGDEADYYCGTWDSWHRVVTFGGGTKLTVLG", 0.33),
    ("anti-CGRP receptor variant 11, yeast-displayed Fab (Fab, V domains shown, also called Variant Ab ID 11) VH: QVQLVESGGGVVQPGRSLRLSCAASGFWFDTFGMHWVRQAPGKGLEWVAVISFAGEDTHYVDSVKGRFTISRDNSKNTLFLQMNSLRAEDTAVYYCARDRLNYYESYGYYGYHYYGMAVWGQGTTVTVSS VL: QSVLTQPPSVSAAPGQKVTISCSGSRSNIGRYSVSWYQQLPGTAPKLLIYENMFRPRGIPDRFSGSKSGTSATLGITGLQTGDEADYYCGTWDYRMQAVVFGGGTKLTVLG", 3.38),
    ("anti-CGRP receptor variant 10, yeast-displayed Fab (Fab, V domains shown, also called Variant Ab ID 10) VH: QVQLVESGGGVVQPGRSLRLSCAASGFFFGSYGMHWVRQAPGKGLEWVAVISFAGEIEHYVDSVKGRFTISRDNSKNTLFLQMNSLRAEDTAVYYCARDRLNYYESSGYYHYKYYGMAVWGQGTTVTVSS VL: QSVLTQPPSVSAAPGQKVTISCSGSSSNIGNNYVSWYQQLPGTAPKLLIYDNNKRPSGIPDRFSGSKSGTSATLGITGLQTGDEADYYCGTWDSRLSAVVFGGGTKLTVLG", 2.04),
]
